TESTED_TARGET: Metabotropic glutamate receptor 2 (Homo sapiens, UniProt Q14416)
PROTOCOL_TEXT: Positive allosteric modulation of human mGlu2 receptor expressed in CHO cells assessed as potentiation of glutamate-induced effect incubated for 30 mins prior to [35S]GTPgamma addition measured after 30 mins relative to glutamate
Type: functional, cell-based
Sequence (Q14416 19-872 limits assumed): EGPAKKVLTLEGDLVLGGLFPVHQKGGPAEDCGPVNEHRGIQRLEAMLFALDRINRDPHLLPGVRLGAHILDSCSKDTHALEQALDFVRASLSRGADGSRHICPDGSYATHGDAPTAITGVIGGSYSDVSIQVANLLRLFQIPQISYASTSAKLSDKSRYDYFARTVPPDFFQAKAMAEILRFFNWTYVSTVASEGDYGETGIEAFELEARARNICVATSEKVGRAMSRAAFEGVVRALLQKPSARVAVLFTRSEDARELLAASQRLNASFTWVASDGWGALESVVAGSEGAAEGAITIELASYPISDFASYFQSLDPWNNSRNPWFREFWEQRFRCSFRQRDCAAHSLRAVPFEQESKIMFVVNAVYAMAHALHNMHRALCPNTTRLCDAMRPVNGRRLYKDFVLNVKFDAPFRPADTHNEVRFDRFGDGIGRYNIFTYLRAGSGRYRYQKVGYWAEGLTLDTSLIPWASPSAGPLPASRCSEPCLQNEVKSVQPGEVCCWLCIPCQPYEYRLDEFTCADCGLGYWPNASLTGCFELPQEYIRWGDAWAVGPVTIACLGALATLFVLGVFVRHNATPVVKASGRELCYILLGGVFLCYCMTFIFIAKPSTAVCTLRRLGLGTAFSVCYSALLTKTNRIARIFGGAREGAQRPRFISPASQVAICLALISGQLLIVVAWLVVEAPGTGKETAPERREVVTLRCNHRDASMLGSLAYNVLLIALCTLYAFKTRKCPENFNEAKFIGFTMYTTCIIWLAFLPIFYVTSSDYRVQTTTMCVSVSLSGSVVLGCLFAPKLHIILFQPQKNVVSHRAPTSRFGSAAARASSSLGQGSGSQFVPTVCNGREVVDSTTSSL
# Y = Emax below 300% (exclusive); N = Emax at/above 300%

• COc1ccccc1C1CCN(c2ccn(CC3CC3)c(=O)c2C#N)CC1 = Y
• CC(C)Cn1ccc(N2CCC(c3ccccc3)CC2)c(C#N)c1=O = N
• CC(C)CCn1ccc(N2CCC(c3ccccc3)CC2)c(C#N)c1=O = Y
• CC(C)CCn1ccc(N2CCCCC2)c(C#N)c1=O = Y
• CC(C)Cn1ccc(N2CCC(c3ccccc3)CC2)c(Cl)c1=O = Y

Next item in the queue.
## Task Here's an entry: `N#Cc1c(N2CCC(c3ccc(F)cc3)CC2)ccn(CC2CC2)c1=O` . Is its Emax below 300%?
## Result Y

###

TESTED_TARGET: Metabotropic glutamate receptor 2 (Homo sapiens, UniProt Q14416)
PROTOCOL_TEXT: Positive allosteric modulation of human mGlu2 receptor expressed in CHO cells assessed as potentiation of glutamate-induced effect incubated for 30 mins prior to [35S]GTPgamma addition measured after 30 mins relative to glutamate
Type: functional, cell-based
MEASUREMENT_NAME: Emax (%)
Numbers only, in %.

Example results:
* CC(C)CCn1ccc(CCc2ccccc2)c(C#N)c1=O | 168
* CC(C)CCn1ccc(N2CCc3ccccc3C2)c(C#N)c1=O | 310

Dear colleague, could you send me Emax for each of the items below? Thanks.
1. CC(C)CCn1ccc(-c2ccccc2)c(C#N)c1=O
2. CCCCn1ccc(N2CCC(c3ccccc3)CC2)c(C#N)c1=O
3. N#Cc1c(N2CCC(c3ccc(F)cc3F)CC2)ccn(CC2CC2)c1=O
4. CC(C)CCn1ccc(N2CCCC(c3ccccc3)C2)c(C#N)c1=O (stereo unspecified)

## Result
1. 135
2. 309
3. 272
4. 231

###

For each record, write down the corresponding metabolised at 0.25 h, 5 µM.
PROTOCOL_TEXT: Metabolic stability in human liver microsomes assessed as compound metabolized at 5 uM after 15 mins by MS/MS analysis in presence of NADPH
Format: ADME
MEASUREMENT_CONTEXT: read-out: Drug metabolism
Give bare numbers, in %.

The following compounds have reported results that may help.
- N#Cc1c(N2CCC(c3cccc(F)c3)CC2)ccn(CC2CC2)c1=O: 35
- N#Cc1c(N2CCC(c3cc(F)cc(F)c3)CC2)ccn(CC2CC2)c1=O: 30
- CC(C)CCn1ccc(-c2ccccc2)c(C#N)c1=O: 36
- N#Cc1c(N2CCC(c3ccc(F)cc3F)CC2)ccn(CC2CC2)c1=O: 17

# next compound below
Lab note: measured metabolised at 0.25 h, 5 µM of `CC(C)Cn1ccc(N2CCC(c3ccccc3)CC2)c(C#N)c1=O` was 37

###

TESTED_TARGET: UniProtKB Q14416
PROTOCOL_TEXT: Positive allosteric modulation of human mGlu2 receptor expressed in CHO cells assessed as potentiation of glutamate-induced effect incubated for 30 mins prior to [35S]GTPgamma addition measured after 30 mins
Format: functional, cell-based
Sequence (Q14416 whole entry): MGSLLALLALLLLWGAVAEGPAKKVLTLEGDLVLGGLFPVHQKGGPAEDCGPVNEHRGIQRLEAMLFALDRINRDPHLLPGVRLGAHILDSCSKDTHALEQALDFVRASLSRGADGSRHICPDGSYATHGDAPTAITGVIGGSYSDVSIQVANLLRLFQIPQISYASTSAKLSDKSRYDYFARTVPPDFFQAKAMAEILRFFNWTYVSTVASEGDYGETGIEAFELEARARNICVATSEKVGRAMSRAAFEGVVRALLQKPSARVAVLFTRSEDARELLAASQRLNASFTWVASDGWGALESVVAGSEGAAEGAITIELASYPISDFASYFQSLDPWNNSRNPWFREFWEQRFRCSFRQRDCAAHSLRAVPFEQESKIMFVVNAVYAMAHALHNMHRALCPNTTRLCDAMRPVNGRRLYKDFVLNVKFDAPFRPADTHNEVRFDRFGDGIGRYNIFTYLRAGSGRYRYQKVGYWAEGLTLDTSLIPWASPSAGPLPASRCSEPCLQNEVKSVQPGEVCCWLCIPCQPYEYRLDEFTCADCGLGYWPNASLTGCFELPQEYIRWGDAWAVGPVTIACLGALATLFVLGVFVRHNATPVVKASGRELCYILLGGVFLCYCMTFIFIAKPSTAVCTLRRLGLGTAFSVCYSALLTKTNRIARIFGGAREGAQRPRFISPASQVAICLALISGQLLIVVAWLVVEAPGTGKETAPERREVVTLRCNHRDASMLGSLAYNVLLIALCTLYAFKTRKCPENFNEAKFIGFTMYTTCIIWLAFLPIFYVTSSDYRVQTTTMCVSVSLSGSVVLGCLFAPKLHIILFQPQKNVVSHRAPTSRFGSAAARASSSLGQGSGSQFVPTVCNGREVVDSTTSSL
MEASUREMENT_NAME: pEC50
Give bare numbers, as −log10 of the molar value.

The cases that follow already have their pEC50 on record.
- CC(C)CCn1ccc(OCc2ccccc2)c(C#N)c1=O: 5.53
- CCCCn1ccc(N2CCC(c3ccccc3)CC2)c(C#N)c1=O: 7.02
- N#Cc1c(N2CCC(c3cccc(C(F)(F)F)c3)CC2)ccn(CC2CC2)c1=O: 7.34
- N#Cc1c(N2CCC(c3ccccc3)CC2)ccn(CCC2CC2)c1=O: 6.75
- CC(C)CCn1ccc(N2CCN(Cc3ccccc3)CC2)c(C#N)c1=O: 5.33

Pending molecule:
Just so you know, measured pEC50 for `CC(C)CCn1ccc(N2CCN(c3ccccn3)CC2)c(C#N)c1=O` came out at 5.51

###

TESTED_TARGET: Metabotropic glutamate receptor 2 (Homo sapiens, UniProt Q14416)
PROTOCOL_TEXT: Positive allosteric modulation of human mGlu2 receptor expressed in CHO cells assessed as potentiation of glutamate-induced effect incubated for 30 mins prior to [35S]GTPgamma addition measured after 30 mins relative to glutamate
Assay type: functional, cell-based
MEASUREMENT_NAME: Emax (%)
One number for each entry, in %.

• N#Cc1c(N2CCC(c3ccccc3)CC2)ccn(CCCC(F)(F)F)c1=O = 302
• CC(C)CCn1ccc(N2CCN(c3ccccn3)CC2)c(C#N)c1=O = 304
• N#Cc1c(N2CCC(c3ccccc3Cl)CC2)ccn(CC2CC2)c1=O = 259
• O=c1c(Cl)c(N2CCC(c3ccccc3)CC2)ccn1CC1CC1 = 259

Please turn your attention to the following entry.
The recorded Emax for entry `N#Cc1c(N2CCC(c3ccc(Cl)cc3)CC2)ccn(CC2CC2)c1=O` equals 249
